- targetSystem: IKZF1 (Homo sapiens, UniProt Q13422+Q96SW2)
- Construct: expressed in transfected cells
- Sequence (Q13422 whole entry): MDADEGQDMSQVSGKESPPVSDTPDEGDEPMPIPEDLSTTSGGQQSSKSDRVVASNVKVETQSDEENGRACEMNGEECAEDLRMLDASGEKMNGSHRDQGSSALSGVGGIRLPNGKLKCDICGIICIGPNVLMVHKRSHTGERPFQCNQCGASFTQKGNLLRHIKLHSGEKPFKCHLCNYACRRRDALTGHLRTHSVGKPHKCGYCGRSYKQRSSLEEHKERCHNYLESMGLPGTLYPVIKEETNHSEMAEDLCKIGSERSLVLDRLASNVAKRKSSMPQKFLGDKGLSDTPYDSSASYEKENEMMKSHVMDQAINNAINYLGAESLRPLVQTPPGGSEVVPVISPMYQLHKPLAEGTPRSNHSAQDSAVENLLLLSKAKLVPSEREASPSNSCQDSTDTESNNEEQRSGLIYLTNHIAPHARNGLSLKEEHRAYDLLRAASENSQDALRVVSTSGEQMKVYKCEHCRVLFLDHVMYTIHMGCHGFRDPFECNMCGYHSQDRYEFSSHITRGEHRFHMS
- Sequence (Q96SW2 whole entry): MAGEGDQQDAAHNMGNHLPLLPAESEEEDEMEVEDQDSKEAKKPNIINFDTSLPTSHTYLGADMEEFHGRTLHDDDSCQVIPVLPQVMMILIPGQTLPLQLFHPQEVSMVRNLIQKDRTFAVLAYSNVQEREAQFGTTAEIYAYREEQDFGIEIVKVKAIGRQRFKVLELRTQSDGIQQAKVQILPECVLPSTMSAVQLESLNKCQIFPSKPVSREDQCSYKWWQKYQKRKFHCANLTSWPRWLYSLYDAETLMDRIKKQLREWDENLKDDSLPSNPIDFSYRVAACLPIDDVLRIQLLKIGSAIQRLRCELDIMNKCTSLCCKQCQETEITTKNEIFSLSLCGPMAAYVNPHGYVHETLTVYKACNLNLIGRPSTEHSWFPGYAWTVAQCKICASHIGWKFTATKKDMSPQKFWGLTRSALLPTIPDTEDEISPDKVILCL
- Sequence (Q16531 whole entry partner): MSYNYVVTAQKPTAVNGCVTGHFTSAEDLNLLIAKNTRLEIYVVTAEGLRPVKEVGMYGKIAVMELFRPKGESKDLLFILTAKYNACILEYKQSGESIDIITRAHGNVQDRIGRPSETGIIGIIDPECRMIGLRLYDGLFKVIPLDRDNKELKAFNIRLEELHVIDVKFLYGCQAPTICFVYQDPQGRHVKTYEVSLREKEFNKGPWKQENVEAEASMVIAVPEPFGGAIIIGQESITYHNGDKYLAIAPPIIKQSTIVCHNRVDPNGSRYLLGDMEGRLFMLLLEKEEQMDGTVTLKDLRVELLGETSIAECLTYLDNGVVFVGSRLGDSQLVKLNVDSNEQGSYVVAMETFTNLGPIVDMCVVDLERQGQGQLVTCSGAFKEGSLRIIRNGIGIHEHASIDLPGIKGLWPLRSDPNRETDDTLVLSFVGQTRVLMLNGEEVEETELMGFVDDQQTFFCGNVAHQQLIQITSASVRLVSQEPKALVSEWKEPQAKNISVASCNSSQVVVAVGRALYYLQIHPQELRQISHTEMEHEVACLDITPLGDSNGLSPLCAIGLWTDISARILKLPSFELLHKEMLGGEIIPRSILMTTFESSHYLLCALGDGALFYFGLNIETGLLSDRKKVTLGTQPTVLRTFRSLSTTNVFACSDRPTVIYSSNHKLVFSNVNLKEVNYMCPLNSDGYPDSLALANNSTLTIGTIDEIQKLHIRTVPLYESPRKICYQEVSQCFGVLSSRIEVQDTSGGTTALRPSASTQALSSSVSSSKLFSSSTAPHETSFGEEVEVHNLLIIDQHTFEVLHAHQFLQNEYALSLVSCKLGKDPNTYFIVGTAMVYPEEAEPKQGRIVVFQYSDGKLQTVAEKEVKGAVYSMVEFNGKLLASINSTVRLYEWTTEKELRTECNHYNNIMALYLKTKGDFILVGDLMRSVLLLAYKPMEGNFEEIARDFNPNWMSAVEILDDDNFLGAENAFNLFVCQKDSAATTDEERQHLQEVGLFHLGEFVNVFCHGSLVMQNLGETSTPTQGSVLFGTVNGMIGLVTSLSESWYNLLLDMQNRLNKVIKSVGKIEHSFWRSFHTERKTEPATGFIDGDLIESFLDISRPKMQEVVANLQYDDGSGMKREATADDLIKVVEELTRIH
- measurementProtocol: HiBiT protein tagging assay, in vitro IKZF1 degradation (HEK293)
- Type: cell-based
- measurementParameters: HEK293, 18-24 hr incubation, normalized to DMSO control, read-out: IKZF1 Dmax (maximum degradation at the highest concentration tested)
measure: Dmax (%)

Solved cases (3 shown):
* CO[C@H]1CC[C@@H](NCc2ccc3c(c2)CN(C2CCC(=O)NC2=O)C3=O)CC1 (stereo partly drawn) | 73
* O=C1CCC(N2Cc3cc(CNC4CCC(Cc5ccccc5)C4)ccc3C2=O)C(=O)N1 (stereo not drawn) | 57
* O=C1CCC(N2Cc3cc(CNC4CCN(Cc5ccccc5)CC4)ccc3C2=O)C(=O)N1 (stereo not drawn) | 51

I = O=C1CCC(N2Cc3cc(CN[C@@H]4CCCN(Cc5ccncc5)C4)ccc3C2=O)C(=O)N1 (stereo partly drawn)
II = NC(=O)C1CCCC(NCc2ccc3c(c2)CN(C2CCC(=O)NC2=O)C3=O)C1 (stereo not drawn)
III = O=C1CCC(N2Cc3cc(CNCCCO)ccc3C2=O)C(=O)N1 (stereo not drawn)
Q) Task for the reader: rank each entry by its Dmax, from the minimum upward. Reply with the labels, ordered as the question asks.
A) III, II, I
(III: 36%, II: 66%, I: 95%)
